- Tested on: ATP;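 also: ATP exposure 15 min at 22 °C before imaging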
- assay_text: switch fluorescence ratio, 500 uM ATP over buffer (Cy3 cluster intensity, sum of 5 cycles each) (fold (ratio)); higher = stronger signal-on switching upon ATP binding; sequences stand for … in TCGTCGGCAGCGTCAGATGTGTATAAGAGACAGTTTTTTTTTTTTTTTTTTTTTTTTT…TC
- measurement_context: aptamer strand: ATP DNA aptamer (quencher-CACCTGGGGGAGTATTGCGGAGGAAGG + anchor), 100 nM annealed; ATP concentration: 500 uM
measurement_label: switch fluorescence ratio
# respond with the number and nothing more

Illustrative cases are given below, each with its answer.
{"sequence_record": "TACAAGATGT", "measurement_label": "switch fluorescence ratio", "observed": 1.01}
{"sequence_record": "TAATGTGGGG", "measurement_label": "switch fluorescence ratio", "observed": 0.971}
{"sequence_record": "AACGGACAAA", "measurement_label": "switch fluorescence ratio", "observed": 1.2}
{"sequence_record": "GAAGGTGAAT", "measurement_label": "switch fluorescence ratio", "observed": 1.04}
{"sequence_record": "ATGAGGGACT", "measurement_label": "switch fluorescence ratio", "observed": 0.959}
{"sequence_record": "AGTAAGGGGA", "measurement_label": "switch fluorescence ratio", "observed": 1.08}
{"sequence_record": "ACCAGGGCTT", "measurement_label": "switch fluorescence ratio", "observed": 1.08}
{"sequence_record": "GGCCCAGGGA", "measurement_label": "switch fluorescence ratio", "observed": 1.18}

API: value(readout= switch fluorescence ratio, system= ATP, query= GGATCCTGGG );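 also: ATP exposure 15 min at 22 °C before imaging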
0.993

API: value(readout= switch fluorescence ratio, system= ATP, query= GCTCCATTTG );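 also: ATP exposure 15 min at 22 °C before imaging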
0.983

API: value(readout= switch fluorescence ratio, system= ATP, query= TGGGGCGCTT );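 also: ATP exposure 15 min at 22 °C before imaging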
1

----------
Items are presented alongside their recorded switch fluorescence ratio.
- System: ATP;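 also: ATP exposure 15 min at 22 °C before imaging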
- assay_text: switch fluorescence ratio, 500 uM ATP over buffer (Cy3 cluster intensity, sum of 5 cycles each) (fold (ratio)); higher = stronger signal-on switching upon ATP binding; sequences stand for … in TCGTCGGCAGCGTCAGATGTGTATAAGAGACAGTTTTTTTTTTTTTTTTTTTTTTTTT…TC
- measurement_context: aptamer strand: ATP DNA aptamer (quencher-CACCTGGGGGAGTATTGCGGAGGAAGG + anchor), 100 nM annealed; ATP concentration: 500 uM
# respond with the number and nothing more

Illustrative cases are given below, each with its answer.
{"sequence_record": "GGGGTTGTGA", "observed": 1.01}
{"sequence_record": "TGGGTAATGG", "observed": 1.01}
{"sequence_record": "AGGCGTAAAA", "observed": 0.985}
{"sequence_record": "TCTAGGAGGT", "observed": 0.987}
{"sequence_record": "GGGGACGATG", "observed": 0.996}
{"sequence_record": "ATATTGTTGT", "observed": 0.997}
{"sequence_record": "GTGGTACGTA", "observed": 1.02}
{"sequence_record": "AGGAGCTGGT", "observed": 1.02}

Next item in the queue.
Any idea what its switch fluorescence ratio is? The sequence is CGTGTATTGG
0.987

----------
- Tested on: ATP;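 also: ATP exposure 15 min at 22 °C before imaging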
- assay_text: switch fluorescence ratio, 500 uM ATP over buffer (Cy3 cluster intensity, sum of 5 cycles each) (fold (ratio)); higher = stronger signal-on switching upon ATP binding; sequences stand for … in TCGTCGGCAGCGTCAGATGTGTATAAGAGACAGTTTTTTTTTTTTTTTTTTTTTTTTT…TC
- measurement_context: aptamer strand: ATP DNA aptamer (quencher-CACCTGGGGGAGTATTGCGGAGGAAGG + anchor), 100 nM annealed; ATP concentration: 500 uM
Items are presented alongside their recorded switch fluorescence ratio.
# respond with the number and nothing more

Illustrative cases are given below, each with its answer.
{"sequence_record": "CGGGGGCTGC", "switch fluorescence ratio": 1.13}
{"sequence_record": "ACGCGCTTTA", "switch fluorescence ratio": 0.999}
{"sequence_record": "AGAAGTTTTC", "switch fluorescence ratio": 0.973}

Any idea what its switch fluorescence ratio is? The sequence is AGGTGGGGAC
1.01

Any idea what its switch fluorescence ratio is? The sequence is AGAGGAGAAT
0.993

Any idea what its switch fluorescence ratio is? The sequence is TTTGTAACAT
0.966

Any idea what its switch fluorescence ratio is? The sequence is GGGACGGGGC
1.06

Any idea what its switch fluorescence ratio is? The sequence is GGGTGGAATT
1

Any idea what its switch fluorescence ratio is? The sequence is CATTCGTTTG
0.96

----------
- System: ATP;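 also: ATP exposure 15 min at 22 °C before imaging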
- assay_text: switch fluorescence ratio, 500 uM ATP over buffer (Cy3 cluster intensity, sum of 5 cycles each) (fold (ratio)); higher = stronger signal-on switching upon ATP binding; sequences stand for … in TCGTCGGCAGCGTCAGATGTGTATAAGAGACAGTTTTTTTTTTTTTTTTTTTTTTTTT…TC
- measurement_context: aptamer strand: ATP DNA aptamer (quencher-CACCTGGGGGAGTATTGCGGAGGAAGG + anchor), 100 nM annealed; ATP concentration: 500 uM
measurement_label: switch fluorescence ratio
# respond with the number and nothing more

Illustrative cases are given below, each with its answer.
{"sequence_record": "GTTAACGTGG", "measurement_label": "switch fluorescence ratio", "observed": 0.99}
{"sequence_record": "TTATGAAATT", "measurement_label": "switch fluorescence ratio", "observed": 1.01}
{"sequence_record": "CATGTAAGGG", "measurement_label": "switch fluorescence ratio", "observed": 1}
{"sequence_record": "ACCGGGCTTT", "measurement_label": "switch fluorescence ratio", "observed": 0.988}
{"sequence_record": "GGGAGGGTTG", "measurement_label": "switch fluorescence ratio", "observed": 0.981}

Any idea what its switch fluorescence ratio is? The sequence is GGTCTAGTCC
1.02

Any idea what its switch fluorescence ratio is? The sequence is CAAGATATAT
1

Any idea what its switch fluorescence ratio is? The sequence is TATTGGTGGT
0.995

Any idea what its switch fluorescence ratio is? The sequence is TAGTCTGTTC
1.01

Any idea what its switch fluorescence ratio is? The sequence is CTTGTCACCA
0.988

Any idea what its switch fluorescence ratio is? The sequence is GGGGATAAAA
1.01

----------
- Tested on: ATP;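 also: ATP exposure 15 min at 22 °C before imaging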
- assay_text: switch fluorescence ratio, 500 uM ATP over buffer (Cy3 cluster intensity, sum of 5 cycles each) (fold (ratio)); higher = stronger signal-on switching upon ATP binding; sequences stand for … in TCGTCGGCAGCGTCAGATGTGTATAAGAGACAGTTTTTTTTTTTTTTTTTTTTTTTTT…TC
- measurement_context: aptamer strand: ATP DNA aptamer (quencher-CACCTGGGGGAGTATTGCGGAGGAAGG + anchor), 100 nM annealed; ATP concentration: 500 uM
Items are presented alongside their recorded switch fluorescence ratio.
# respond with the number and nothing more

{"sequence_record": "GCAGTACGGC", "switch fluorescence ratio": 1.05}
{"sequence_record": "TGTTTTTTGA", "switch fluorescence ratio": 0.99}
{"sequence_record": "AAGGGTTTGC", "switch fluorescence ratio": 0.974}
{"sequence_record": "GGGGGGAGG", "switch fluorescence ratio": 1.1}
{"sequence_record": "GTATTGGGCT", "switch fluorescence ratio": 0.98}
{"sequence_record": "TATAATTAAT", "switch fluorescence ratio": 0.982}
{"sequence_record": "ACATTGAGGG", "switch fluorescence ratio": 1.06}
{"sequence_record": "AAGCTGATCT", "switch fluorescence ratio": 1.02}
{"sequence_record": "CGGGATCTGT", "switch fluorescence ratio": 1.01}
{"sequence_record": "TTTGTTACCG", "switch fluorescence ratio": 0.995}

Next item in the queue.
Any idea what its switch fluorescence ratio is? The sequence is ATGTATAAAG
0.987

----------
- System: ATP;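 also: ATP exposure 15 min at 22 °C before imaging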
- assay_text: switch fluorescence ratio, 500 uM ATP over buffer (Cy3 cluster intensity, sum of 5 cycles each) (fold (ratio)); higher = stronger signal-on switching upon ATP binding; sequences stand for … in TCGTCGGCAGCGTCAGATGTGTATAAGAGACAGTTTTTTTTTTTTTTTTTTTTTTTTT…TC
- measurement_context: aptamer strand: ATP DNA aptamer (quencher-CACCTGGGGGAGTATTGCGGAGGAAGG + anchor), 100 nM annealed; ATP concentration: 500 uM
Items are presented alongside their recorded switch fluorescence ratio.

Illustrative cases are given below, each with its answer.
{"sequence_record": "TTTATTTGGA", "measured_target": "ATP", "switch fluorescence ratio": 1.02}
{"sequence_record": "TTACTCTCTG", "measured_target": "ATP", "switch fluorescence ratio": 1.03}
{"sequence_record": "GCGTATTCTA", "measured_target": "ATP", "switch fluorescence ratio": 1}
{"sequence_record": "GGGCAACTGA", "measured_target": "ATP", "switch fluorescence ratio": 1.01}

API: value(readout= switch fluorescence ratio, system= ATP, query= AACGGAACTA );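 also: ATP exposure 15 min at 22 °C before imaging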
1.15

API: value(readout= switch fluorescence ratio, system= ATP, query= TATGTATGGA );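 also: ATP exposure 15 min at 22 °C before imaging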
0.989

API: value(readout= switch fluorescence ratio, system= ATP, query= AATTTTTTAA );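 also: ATP exposure 15 min at 22 °C before imaging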
0.985

API: value(readout= switch fluorescence ratio, system= ATP, query= GATAGGGGAT );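 also: ATP exposure 15 min at 22 °C before imaging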
0.986

API: value(readout= switch fluorescence ratio, system= ATP, query= TCGGGTTTAT );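 also: ATP exposure 15 min at 22 °C before imaging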
1

API: value(readout= switch fluorescence ratio, system= ATP, query= CCTTTGGAGG );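 also: ATP exposure 15 min at 22 °C before imaging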
0.981

API: value(readout= switch fluorescence ratio, system= ATP, query= CGTGAGATTA );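 also: ATP exposure 15 min at 22 °C before imaging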
0.985
